Ref: paper PMC4336329

molecular target: human ether-à-go-go-related gene (hERG) potassium channel (human, UniProt Q12809); assay: primary screen, population patch clamp on CHO cells stably expressing hERG; higher = less effect of the substance;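 also: peak tail current of the secondary pulse compared with the same well before compound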
Sequence (Q12809 whole entry, looked up): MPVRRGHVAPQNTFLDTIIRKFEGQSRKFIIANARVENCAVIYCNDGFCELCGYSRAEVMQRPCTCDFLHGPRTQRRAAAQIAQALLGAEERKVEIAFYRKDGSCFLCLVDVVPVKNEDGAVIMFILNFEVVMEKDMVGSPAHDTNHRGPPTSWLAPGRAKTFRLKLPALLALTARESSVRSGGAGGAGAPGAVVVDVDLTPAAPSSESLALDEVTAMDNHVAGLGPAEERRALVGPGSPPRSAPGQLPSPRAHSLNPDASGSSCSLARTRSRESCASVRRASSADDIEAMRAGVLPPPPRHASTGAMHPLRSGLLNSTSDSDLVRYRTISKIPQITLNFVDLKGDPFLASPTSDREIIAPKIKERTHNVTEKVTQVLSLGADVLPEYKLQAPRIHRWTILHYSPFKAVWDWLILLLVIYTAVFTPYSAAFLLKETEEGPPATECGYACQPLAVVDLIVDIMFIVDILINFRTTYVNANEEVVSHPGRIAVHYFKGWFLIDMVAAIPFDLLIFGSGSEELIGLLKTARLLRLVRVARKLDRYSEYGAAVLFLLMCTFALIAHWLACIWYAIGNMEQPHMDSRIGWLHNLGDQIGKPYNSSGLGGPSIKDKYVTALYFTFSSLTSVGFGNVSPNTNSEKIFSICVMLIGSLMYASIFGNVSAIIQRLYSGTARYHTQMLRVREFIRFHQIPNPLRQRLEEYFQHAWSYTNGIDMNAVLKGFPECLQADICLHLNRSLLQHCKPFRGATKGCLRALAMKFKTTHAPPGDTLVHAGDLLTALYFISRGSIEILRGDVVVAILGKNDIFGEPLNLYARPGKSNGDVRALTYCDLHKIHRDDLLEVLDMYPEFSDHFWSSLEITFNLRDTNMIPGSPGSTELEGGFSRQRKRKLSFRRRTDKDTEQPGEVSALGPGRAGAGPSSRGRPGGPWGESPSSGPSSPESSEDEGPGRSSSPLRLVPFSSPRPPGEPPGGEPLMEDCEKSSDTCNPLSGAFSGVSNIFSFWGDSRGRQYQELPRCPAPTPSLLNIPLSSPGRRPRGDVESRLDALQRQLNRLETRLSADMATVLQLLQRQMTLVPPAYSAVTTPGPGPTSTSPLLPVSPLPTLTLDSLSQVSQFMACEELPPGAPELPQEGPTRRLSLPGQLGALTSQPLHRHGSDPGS
Out of some 310,000 compounds screened, about 14,000 (4.5%) showed an effect of 50% or more. The effect is printed as a negative number. For the sample, strong results were picked, then their nearest neighbours and some compounds at random.
Endpoint name: hERG current change (%, negative = inhibition) at 10uM (%)
Your answer is read as %, so omit the unit and give the number.

Reported hERG current change (%, negative = inhibition) at 10uM ( O=C(/C=C/c1cc(Br)ccc1F)Nc1cccnc1 ) = 14.6

hERG current change (%, negative = inhibition) at 10uM reported for this compound COc1cc(C(=O)OC2C[C@H]3CC[C@@H](C2)N3C)ccc1O (stereo partly drawn) : -7

// field: hERG current change (%, negative = inhibition) at 10uM; key: CCOc1ccc2nc(NC(=O)c3cnccn3)sc2c1 ; value = 2.76

compound CC1=NNC(=O)C1C(c1cccc(O)c1)C(C#N)C#N (stereo not drawn) , hERG current change (%, negative = inhibition) at 10uM observed: 14.3

hERG current change (%, negative = inhibition) at 10uM recorded for this compound, O=C(Nc1sc2c(c1C(=O)O)CCCC2)c1ccccc1Cl , is 11.9

Measured hERG current change (%, negative = inhibition) at 10uM of CC(=O)Nc1sc2c(c1C(N)=O)CCN(Cc1ccccc1)C2.Cl : -23.3

====

target: human ether-à-go-go-related gene (hERG) potassium channel (human, UniProt Q12809); assay: primary screen, population patch clamp on CHO cells stably expressing hERG; higher = less effect of the substance;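 also: peak tail current of the secondary pulse compared with the same well before compound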
Hit rate of the full screen: of about 310,000 compounds, about 14,000 (4.5%) showed an effect of 50% or more. Effects have a minus sign here. Many of the other results were omitted from the sample, so strong results are more common in it than they were.
Exercise: state measured hERG current change (%, negative = inhibition) at 10uM for each of the compounds provided.
Unit % implied. Number only.

Consider COc1ccc([C@H]2CC(=O)C=C(/C=C/c3ccc(Cl)cc3)C2)cc1 . Its measured hERG current change (%, negative = inhibition) at 10uM is 12.8

O=C1C=C(/C=C/c2ccccc2)C[C@@H](c2ccc(F)cc2)C1 yielded hERG current change (%, negative = inhibition) at 10uM of -59.7

The compound COc1ccc([C@H]2CC(=O)C=C(c3cc(C(F)(F)F)cc(C(F)(F)F)c3)C2)cc1 showed hERG current change (%, negative = inhibition) at 10uM equal to 4.42

Measured hERG current change (%, negative = inhibition) at 10uM, O=C1C=C(c2ccccc2)CC(c2ccc(F)cc2)C1 (centres unmarked) : -28.2

Consider COc1ccc([C@H]2CC(=O)C=C(/C=C/c3ccc(C(F)(F)F)cc3)C2)cc1 . Its measured hERG current change (%, negative = inhibition) at 10uM is -62.9

====

Target: human ether-à-go-go-related gene (hERG) potassium channel (human);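 also: peak tail current of the secondary pulse compared with the same well before compound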
Experiment: primary screen, population patch clamp on CHO cells stably expressing hERG; higher = less effect of the substance
Description: Briefly, Chinese hamster ovary (CHO) cells stably expressing the hERG channel were dislodged from tissue culture flasks and dispensed into PPC plates. […] During the recording, background leak currents were estimated by a 100 ms step to -80 mV from an initial holding potential of -70 mV and subtracted from the subsequent current measurement. The campaign was conducted in two phases using slight differences in recording protocol. […]
About 14,000 (4.5%) of roughly 310,000 compounds showed an effect of 50% or more. Effects have a minus sign here. Shown is part of a subset that was picked to be rich in strong results.
Endpoint name: hERG current change (%, negative = inhibition) at 10uM (%)
State the answer as a number, implicitly in %.

I looked up CCOC(=O)N1CCN(c2ncnc3c2[nH]c2ccc(F)cc23)CC1 and its hERG current change (%, negative = inhibition) at 10uM for human ether-à-go-go-related gene (hERG) potassium channel (human) was -2.67

The molecule COc1cc(C(=O)N/N=C/c2ccc(OC(=O)c3ccccc3Cl)cc2)ccc1O , when measured on human ether-à-go-go-related gene (hERG) potassium channel (human), yielded hERG current change (%, negative = inhibition) at 10uM of -10.5

Hey, human ether-à-go-go-related gene (hERG) potassium channel (human) data for O=S(=O)(c1ccc(OCC(O)CN2CCN(c3ccc(F)cc3)CC2)cc1)N1CCOCC1 (stereo not shown) : hERG current change (%, negative = inhibition) at 10uM came out at -18.2

Note to self: hERG current change (%, negative = inhibition) at 10uM of CCCc1cc(=O)n2[nH]c(CCc3ccccc3)nc2n1 with human ether-à-go-go-related gene (hERG) potassium channel (human) was 14.1

The reported human ether-à-go-go-related gene (hERG) potassium channel (human) hERG current change (%, negative = inhibition) at 10uM of O=c1[nH]nc(CNc2ccc(O)cc2)c2ccccc12 is -6.61

# hERG current change (%, negative = inhibition) at 10uM measured on human ether-à-go-go-related gene (hERG) potassium channel (human) for item O=C1C=C(c2ccc(CO)cc2)C[C@@H](c2ccc3c(c2)OCO3)C1 = -44.3

Result for COc1cccc(CN(C)C(=O)Nc2cccc(C(F)(F)F)c2)c1OC , tested on human ether-à-go-go-related gene (hERG) potassium channel (human), hERG current change (%, negative = inhibition) at 10uM: -4.73

Query Cc1cc(C(=O)Nc2cccnc2)on1 on human ether-à-go-go-related gene (hERG) potassium channel (human); hERG current change (%, negative = inhibition) at 10uM returned: -3.6

Field hERG current change (%, negative = inhibition) at 10uM (human ether-à-go-go-related gene (hERG) potassium channel (human)), entry Cn1nnnc1SCC(=O)Nc1ccc(S(=O)(=O)N2CCOCC2)cc1 : 3.21

Measured hERG current change (%, negative = inhibition) at 10uM for this entry CN(C)c1ccc(C(CC(=O)O)C(=O)O)cc1 (stereo not shown) on human ether-à-go-go-related gene (hERG) potassium channel (human): 14.4
